Each recorded value in this set is attributed to patent US20240067944A1.

tested target: T1, human plasma-derived FX (Haematologic Technologies Inc, USA) (human, UniProt P00742 41-179; P00742 183-488)
T1 construct: also called coagulation Factor X; human FX
T1 sequence (P00742 41-179, chain 1 of 2): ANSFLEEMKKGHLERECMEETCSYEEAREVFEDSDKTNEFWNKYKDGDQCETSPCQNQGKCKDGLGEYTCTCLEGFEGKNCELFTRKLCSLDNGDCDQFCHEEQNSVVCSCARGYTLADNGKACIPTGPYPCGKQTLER
T1 sequence (P00742 183-488, chain 2 of 2): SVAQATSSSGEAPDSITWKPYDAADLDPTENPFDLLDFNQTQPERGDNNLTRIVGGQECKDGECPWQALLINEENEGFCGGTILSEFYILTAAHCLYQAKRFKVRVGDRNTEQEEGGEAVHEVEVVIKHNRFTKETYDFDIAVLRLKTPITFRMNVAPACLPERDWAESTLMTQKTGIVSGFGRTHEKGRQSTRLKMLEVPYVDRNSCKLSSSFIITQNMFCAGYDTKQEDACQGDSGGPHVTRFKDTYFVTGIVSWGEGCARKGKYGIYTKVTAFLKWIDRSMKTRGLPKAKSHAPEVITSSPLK
experiment summary: SPR, FX captured on immobilised anti-GLA-FX antibody, steady state analysis, 25 C
Exercise: for every item that follows, state its recorded Kd.
One number for each entry, in nM.

Cmpd #13 (anti-FX/anti-FIX(a) VHH polypeptide derivative) (bispecific antibody, C16 diacid protractor (P2) via linker LP1 on Cys4 and Cys6 in C-term extension (SEQ ID NO: 9), Single chain of two VHH: anti-FX (N-terminal) and anti-FIX(a) (C-terminal); also called VHH1.13-L1-2-VHH2.13-E) DVQLVESGGGVVQPGGSLQLSCAASGGTKRRLAMGWFRQAPGQEREWVAAISRRGGSTNYADSVKGRFTISRDNSKNTVYLDMDDLRPEDTALYYCAADDSVGDGYLDYWGQGTLVTVSSGQAPGQEVQLVESGGGVVQPGGSLQLSCAASGRTFNIYTMSWFRQDPGQEREFVAGLRWTDSSTEYADSVKGRFTISRDNSKNTVYLQMDSLRPEDTALYYCAADRSFLFAQALGATKNYEYWGQGTLVTVSSGQACPC = 300
Cmpd #8 (anti-FX/anti-FIX(a) VHH polypeptide derivative) (bispecific antibody, C16 diacid protractor (P2) via linker LP1 on Cys4 and Cys6 in C-term extension (SEQ ID NO: 9), Single chain of two VHH: anti-FX (N-terminal) and anti-FIX(a) (C-terminal)) DVQLVESGGGVVQPGGSLQLSCAASGGTKSRYAMGWFRQAPGQEREFVAAISRRGGSTNYADSVKGRFTISRDNSKNTVYLQMDSLRPEDTALYYCAADDSVGDGYLDYWGQGTLVTVSSGQAPGQEVQLVESGGGVVQPGGSLQLSCAASGRTFNIYTMSWFRQAPGQEREFVAGLRWTDSSTEYADSVKGRFTISRDNSKNTVYLQMDSLRPEDTALYYCAADRSFLFAQALGATKNYEYWGQGTLVTVSSGQACPC = 96

For every listed record, write down its Kd.
1. Cmpd #11 (anti-FX/anti-FIX(a) VHH polypeptide derivative) (bispecific antibody, C16 diacid protractor (P2) via linker LP1 on Cys4 and Cys6 in C-term extension (SEQ ID NO: 9), Single chain of two VHH: anti-FX (N-terminal) and anti-FIX(a) (C-terminal)) DVQLVESGGGVVQPGGSLQLSCAASGGTKRRLAMGWFRQAPGQEREFVAAISRRGGSTNYADSVKGRFTISRDNSKNTVYLDMDDLRPEDTALYYCAADDSVGDGYLDYWGQGTLVTVSSGQAPGQEVQLVESGGGVVQPGGSLRLSCAASGRTFNIYTMSWFRQDPGQEREFVAGLRWTDSSTEYADSVKGRFTISRDNSKNTVYLQMNSLRPEDTALYYCAADRSFLFAQALGATKNYEYWGQGTLVTVSSGQACPC
2. Cmpd #9 (anti-FX/anti-FIX(a) VHH polypeptide derivative) (bispecific antibody, C16 diacid protractor (P2) via linker LP1 on Cys4 and Cys6 in C-term extension (SEQ ID NO: 9), Single chain of two VHH: anti-FX (N-terminal) and anti-FIX(a) (C-terminal)) DVQLVESGGGVVQPGGSLQLSCAASGGTKSRYAMGWFRQAPGQEREFVAAISRRGGSTNYADSVKGRFTISRDNSKNTVYLDMDDLRPEDTALYYCAADDSVGDGYLDYWGQGTLVTVSSGQAPGQEVQLVESGGGVVQPGGSLRLSCAASGRTFNIYTMSWFRQDPGQEREFVAGLRWTDSSTEYADSVKGRFTISRDNSKNTVYLQMNSLRPEDTALYYCAADRSFLFAQALGATKNYEYWGQGTLVTVSSGQACPC

Solution:
42
70
